The reported measurements were obtained from PubChem BioAssay AID1159558.

# testedTarget: Sterol 14-alpha demethylase (Trypanosoma cruzi (strain CL Brener))
# assayRemarks: TcCYP51 inhibitors, dose response, mechanism study for T. cruzi antiparasitic project, biochemical, recombinant enzyme (AID 1159558);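 note: enzyme in bacterial membranes with Anopheles gambiae CYP reductase and cytochrome b5 partners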
# cond: recombinant T. cruzi CYP51, BOMCC fluorescence
Active and inactive are the calls of the source.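 Rule for the calls: active = IC50 against T. cruzi CYP51 below a set limit; inactive = the rest.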
API: response.call in True (active), False (inactive)

Worked set:
COc1cc(-c2noc(CC#N)n2)ccc1OC(F)F    True
CCc1cccc(-n2nc(OCC(=O)NC3CCCC3)c3cccnc32)c1    False
CN(C)CCOc1ccc(N2CCN(S(=O)(=O)c3ccc(Cl)cc3)CC2)cc1    True

Qu. # fetch the recorded call for O=C(NCCc1csc(-c2ccc(F)cc2)n1)c1cccs1 here
Ans. True

Qu. # fetch the recorded call for Oc1cccnc1-c1n[nH]c(Cc2ccccc2)n1 here
Ans. False

Qu. # fetch the recorded call for CN(C)Cc1ccc(-c2ccc(S(=O)(=O)NCC3CCCO3)c(F)c2)cc1 (centres undefined) here
Ans. True

Qu. # fetch the recorded call for CCOc1ccccc1C(=O)Nc1nnc(-c2ccc3c(c2)OCO3)s1 here
Ans. False

Qu. # fetch the recorded call for CCCNC(=O)Nc1cccc(-c2nc3ncccc3o2)c1 here
Ans. False

Qu. # fetch the recorded call for Clc1ccc(OCCN2CCCCC2c2cccnc2)c(Cl)c1 (centres undefined) here
Ans. True

Qu. # fetch the recorded call for Cc1cc(C#N)c([N+](=O)[O-])cc1Br here
Ans. True

Qu. # fetch the recorded call for Cc1nc2c(-c3nc(-c4ccc(N)cc4)n[nH]3)cccn2c1C here
Ans. False

Qu. # fetch the recorded call for O=C(COc1ccccc1)Nc1ccccc1C(=O)Nc1nccs1 here
Ans. False

Qu. # fetch the recorded call for c1cc(-c2ncc(-c3ccn[nH]3)s2)ccn1 here
Ans. True

Qu. # fetch the recorded call for Cc1[nH]c2ccccc2c(=O)c1Cc1c(C)[nH]c2ccccc2c1=O here
Ans. False

Qu. # fetch the recorded call for Cc1nccn1C1CCCN(C(=O)c2cc3c(F)cccc3s2)C1 (centres undefined) here
Ans. True
